study-target: human ProRS (prolyl tRNA synthetase moiety of glutamyl prolyl tRNA synthetase, EPRS) (Homo sapiens)
Construct: The prolyl tRNA synthetase moiety (ProRS) in the cDNA of glutamyl prolyl tRNA synthetase was subcloned; 6xHis (N, cleaved yes); made in house; host or cells: E. coli BL21 (DE3)
Sequence (P07814 1007-1512 limits assumed): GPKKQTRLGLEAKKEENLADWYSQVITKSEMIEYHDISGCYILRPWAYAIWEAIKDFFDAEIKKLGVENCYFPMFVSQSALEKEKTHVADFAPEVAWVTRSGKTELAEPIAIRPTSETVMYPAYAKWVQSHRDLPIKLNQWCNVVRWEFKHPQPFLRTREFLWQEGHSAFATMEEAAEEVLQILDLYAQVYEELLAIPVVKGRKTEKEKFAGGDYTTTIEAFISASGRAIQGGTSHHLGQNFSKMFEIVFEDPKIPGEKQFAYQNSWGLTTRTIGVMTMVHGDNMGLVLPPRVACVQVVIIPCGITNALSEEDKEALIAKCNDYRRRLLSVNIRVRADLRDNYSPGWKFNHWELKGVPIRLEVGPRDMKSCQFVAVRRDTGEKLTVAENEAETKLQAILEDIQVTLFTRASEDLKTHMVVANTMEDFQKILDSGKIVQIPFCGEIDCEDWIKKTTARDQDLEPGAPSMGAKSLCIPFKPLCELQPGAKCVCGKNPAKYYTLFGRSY
measurement-description: Assay for inhibitors of prolyl tRNA synthetase activity (ProRS assay, labeled proline incorporation)
Type: biochemical
condition: human ProRS 20 nM, 10 min at 37° C.; read-out: EPRS IC50
Structures can show the parent of a compound that is named as a salt.
Note to self: IC50 under 40 nM means 1, ties and anything higher get -1.

Reference set, count: 3
- compound: "CCc1cc(Cl)cc2c(=O)n(C[C@@H](O)C[C@H]3NCCC[C@@H]3O)cnc12 [Example 38, hydrochloride]"
  assigned-class: -1
- compound: "O=c1c2cc(-c3cccc(Cl)c3)ccc2ncn1C[C@@H](O)C[C@H]1NCCC[C@@H]1O [Example 51, hydrochloride]"
  assigned-class: 1
- compound: "O=C(C[C@H]1NCCC[C@@H]1O)Cn1cnc2cccc(-c3cccc(F)c3)c2c1=O [Example 15, hydrochloride]"
  assigned-class: 1

**Q:** Is it true that IC50 reported for Cc1cc(C2CCC2)cc2c(=O)n(C[C@@H](O)C[C@H]3NCCC[C@@H]3O)cnc12 is less than 40 nM?
**A:** 1

**Q:** Proceed to Cc1cc(C(C)C)cc2c(=O)n(C[C@@H](O)C[C@H]3NCCC[C@@H]3O)cnc12 [Example 45, hydrochloride]
**A:** 1

**Q:** Proceed to O=c1c2c(-c3ccc(F)c(F)c3)cccc2ncn1C[C@@H](O)C[C@H]1NCCC[C@@H]1O [Example 61, hydrochloride]
**A:** -1

**Q:** Proceed to Cc1cc(N2CCCC2)cc2c(=O)n(C[C@@H](O)C[C@H]3NCCC[C@@H]3O)cnc12 [Example 58, dihydrochloride]
**A:** -1

**Q:** Proceed to Cc1cc(C#N)cc2c(=O)n(C[C@@H](O)C[C@H]3NCCC[C@@H]3O)cnc12 [Example 47, hydrochloride]
**A:** -1

**Q:** Proceed to O=C(C[C@H]1NCCC[C@@H]1O)Cn1cnc2cccc(-c3cccnc3)c2c1=O [Example 28, dihydrochloride]
**A:** 1
